Test: melting temperature; fluorescence melt of hairpins on a sequencing array, two-state fit, raised by 9.35 °C to match UV melts
Details: sodium 0.088 M
MEASURED PROPERTY: Tm (°C)
Kindly answer with a numeric value in °C, unit omitted.

GATCGTGATGACGATC ((((((....)))))) :: 54.4

Ask | Tm lookup needed for GATCAGCATACTGATC ((((((....)))))) , thanks.
Reply | 51.4

Ask | Tm lookup needed for CTAATGAAAATTAG (((((....))))) , thanks.
Reply | 26

Ask | Tm lookup needed for GTCTCTCGAAAGAGCGAC (((.(((....))).))) , thanks.
Reply | 46.3

Ask | Tm lookup needed for GTCGGCGAAAGCCCGGAC ((((((....)))..))) , thanks.
Reply | 42.4

Ask | Tm lookup needed for GCAGGCGAAAGCCTTGC ((((((....))).))) , thanks.
Reply | 59.2

Ask | Tm lookup needed for GCGTCGACGAAAGTCCGC (((..(((....)))))) , thanks.
Reply | 49.7

Ask | Tm lookup needed for GCTAGCTCGAAAGAGAGC (((..(((....)))))) , thanks.
Reply | 30.4
